Cited source for all entries: PubChem BioAssay AID1117355

molecular target: Glycogen synthase kinase-3 beta (Homo sapiens) (UniProt P49841); experiment: NPC library primary assay, GSK-3β enzyme inhibitors, biochemical, Homo sapiens, LANCE Ultra TR-FRET detection (AID 1117355); details: LANCE Ultra TR-FRET kinase activity; at 20 µM (top of the series)
Sequence (P49841 whole entry, looked up): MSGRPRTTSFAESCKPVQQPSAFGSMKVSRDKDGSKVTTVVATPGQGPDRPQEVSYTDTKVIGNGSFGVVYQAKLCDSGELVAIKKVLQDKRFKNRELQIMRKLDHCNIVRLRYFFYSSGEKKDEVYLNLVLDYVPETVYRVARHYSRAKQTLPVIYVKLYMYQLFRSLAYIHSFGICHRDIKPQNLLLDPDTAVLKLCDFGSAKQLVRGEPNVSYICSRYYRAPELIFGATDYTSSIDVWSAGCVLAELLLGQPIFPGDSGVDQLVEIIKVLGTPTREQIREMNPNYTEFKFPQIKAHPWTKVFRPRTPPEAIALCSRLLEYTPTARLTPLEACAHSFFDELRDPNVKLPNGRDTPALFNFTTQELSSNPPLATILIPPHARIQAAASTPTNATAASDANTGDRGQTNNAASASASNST
Reported inhibition values for a set of compounds
Note: unit % is implicit; provide only the numeric part.

Worked cases, inhibition given:
Using the record for `C[C@@]12C(=O)OC(=O)[C@]1(C)C1CCC2O1` , report its inhibition.
2.16

Quick one: inhibition of `Nc1nc(=S)c2[nH]cnc2[nH]1` ?
-30.7

Quick one: inhibition for `CCCCCCCCCCCCCC[N+](C)(C)C` ?
-4.51

# next compound below
Which measured inhibition value corresponds to `Cc1cc(C2CCCCC2)n(O)c(=O)c1` ?
0.84
